System: SW948
Assay: Cell proliferation assay
Format: cell-based
Conditions: Homo sapiens, 72 hrs, read-out: Cell Viability: IC50
readout-label: pIC50
Quick note: pIC50 values are minus log10 of concentrations in mol/L.

Please report the recorded pIC50 for `Cc1ccccc1C(=O)Nc1nc(NC(=O)c2ccccc2C)n(-c2ccccc2)n1` . 5.08

* * *

Test system: HCT 116
Assay: Cell proliferation assay
Assay type: cell-based
Conditions: Homo sapiens; Table 7b; HCT-116; cells printed in nM; read-out: Cell Proliferation Assay (EC50)
Each record is given 1.0 if its reported EC50 is strictly below 300 nM. Records at or above 300 nM are given 0.0.

compound | class-assignment
CCCCCCC(=O)N1CCN(c2ccc(-n3nc(-c4ccccc4O)nc3NC(=O)c3ccccc3C)cc2)CC1 | 1.0
Cc1cccnc1-c1nc(NC(=O)c2ccc(CN)cc2)n(-c2ccc(OC(F)(F)F)cc2)n1 | 1.0
CCCCCCC(=O)NCc1ccc(C(=O)Nc2nc(-c3ncccc3C)nn2-c2ccc(OC(F)(F)F)cc2)cc1 | 0.0
Cc1ccccc1C(=O)Nc1nc(NC(=O)c2cccc(CNC(C)C)c2)nn1-c1ccc(OC(F)(F)F)cc1 [Compound 13x] | 0.0
CCCCCCC(=O)NCc1ccc(C(=O)Nc2nc(-c3ccccc3O)nn2-c2ccc(OC(F)(F)F)cc2)cc1 | 1.0
NCc1ccc(C(=O)Nc2nc(-c3ccccc3O)nn2-c2ccc(OC(F)(F)F)cc2)cc1 [Compound 10x] | 1.0

Is EC50 strictly under 300 nM for the entry Cc1ccccc1C(=O)Nc1nc(NC(=O)c2cccc(CN3CCOCC3)c2)nn1-c1ccc(OC(F)(F)F)cc1 [Compound 11x] ? 0.0

is_below(EC50, 300 nM) for Cc1ccccc1C(=O)Nc1nc(NC(=O)c2ccc(CNC(=O)[C@@H]3CCCN3)cc2)nn1-c1ccc(OC(F)(F)F)cc1 [Compound 16x] ? 0.0
